system: HCC 2998; test: NCI tumour cell line growth inhibition, 48 h
Active and inactive are the calls of the source. Rule as the data show it: active = GI50 up to about 1.1 µM and inactive = higher.
Labels: y for active, n for inactive

>>> assigned_class("CC(C)OP(=S)(NC(=S)c1ccccc1)OC(C)C")
"n"
>>> assigned_class("O=C(NC12CC3CCC1CC(C3)C2)[C@@H]1CCCN1C(=O)OCc1ccccc1 (stereo not given in full)")
"n"
>>> assigned_class("CNC(=O)OC(C)CN1c2ccccc2Sc2ccc(Cl)cc21 (stereo not given)")
"n"
>>> assigned_class("COc1cc([C@@H]2c3cc4c(cc3[C@@H](NCCCN(C)C)[C@H]3COC(=O)[C@H]23)OCO4)cc(OC)c1O")
"y"
>>> assigned_class("O=Nn1c2ccccc2c2cc([N+](=O)[O-])ccc21")
"n"
>>> assigned_class("OC1=CN=C(c2ccccc2)Oc2ccccc21")
"n"
>>> assigned_class("CC(=O)c1c2c(cc3c1CC1(C3)Cc3ccc4c(c3C1=O)CCC4)CCC2 (stereo not given)")
"n"
>>> assigned_class("CC(=O)OC1CCn2nnc(CO[Si](C)(C)C(C)(C)C)c21 (stereo not given)")
"n"
>>> assigned_class("CSc1nc(O)c2cn(Cc3ccccc3)nc2n1")
"n"
>>> assigned_class("COc1ccc(NCc2cc(OC)c(OC)c(OC)c2)cc1")
"y"
>>> assigned_class("CCNCCNc1c2ccccc2nc2ccccc12")
"y"
>>> assigned_class("Cc1ccc(C(=O)C#Cc2cn(C3CC(O)C(CO)O3)c(=O)[nH]c2=O)cc1 (stereo not given)")
"n"
>>> assigned_class("CN1CCN(CCCCN2c3ccccc3Sc3ccc(C(=O)c4ccccc4)cc32)CC1")
"n"
>>> assigned_class("O=C(O)c1[nH]c(C(=O)O)c(CC(F)(F)C(F)(F)C(F)(F)F)c1CC(F)(F)C(F)(F)C(F)(F)F")
"n"
>>> assigned_class("NC1CCC(c2cc3ccccc3s2)(N2CCCCC2)CC1 (stereo not given)")
"y"
>>> assigned_class("CC(CN1CC(=O)NC(=O)C1)N1CC(=O)NC(=O)C1 (stereo not given)")
"n"
>>> assigned_class("Nc1ncnc2c1ncn2C1CC(OCc2ccccc2[N+](=O)[O-])C(CO)O1 (stereo not given)")
"n"
>>> assigned_class("COC(=O)C(=O)C(C#N)c1cccc2ccccc12 (stereo not given)")
"n"
>>> assigned_class("NC(=O)NC1C(C(=O)O)N(Cc2ccccc2)C(=O)N1Cc1ccccc1 (stereo not given)")
"n"
>>> assigned_class("CCOc1cc2c(cc1O)/C(=N\\O)C[C@@H]1[C@@H]2CC[C@]2(C)[C@@H](O)CC[C@@H]12")
"n"
>>> assigned_class("N#C/C(=C1\\N=C(c2ccccc2O)Oc2ccccc21)c1ccc([N+](=O)[O-])cc1")
"n"
>>> assigned_class("Cn1c(C(O)C2(c3cccnc3)SCCCS2)cc2ccccc21 (stereo not given)")
"n"
>>> assigned_class("Cc1cc(N(CCC#N)CCC#N)ccc1/C=C1\\N=C(c2cc([N+](=O)[O-])ccc2Cl)N(c2cccc(Cl)c2)C1=O")
"n"
>>> assigned_class("CNC(=O)NCCCC(NC(C)=O)C(=O)NCc1ccccc1 (stereo not given)")
"n"
>>> assigned_class("C1=Cc2nc1c(-c1ccccc1)c1nc(c(-c3ccccc3)c3ccc([nH]3)c(-c3ccccc3)c3ccc([nH]3)c2-c2ccccc2)C=C1")
"n"

---

system: SR; assay: NCI tumour cell line growth inhibition, 48 h
The source made the active and inactive calls. Cut-off read from the data, not from the text of the source: active = GI50 up to about 1.1 µM and inactive = higher.
OBSERVABLE: GI50

>>> meas_value("CN(/N=C/c1ccccn1)C1=NCCN1")
"> 100 µM (inactive)"
>>> meas_value("CC(=O)Nc1nc(NC(C)=O)c2nc(CO)[nH]c2n1")
"> 100 µM (inactive)"
>>> meas_value("Oc1cccc(-c2cn3cc(C(F)(F)F)ccc3n2)c1")
"31.6 µM (inactive)"
>>> meas_value("COc1ccccc1Nc1nc2c([nH]1)c(=O)n(C)c(=O)n2C")
"> 10 µM (inactive)"
>>> meas_value("COCCn1cnc2c(Cl)nc(Nc3ccccc3)nc21")
"26.2 µM (inactive)"

---

tested on: NCI-H460; experiment: NCI tumour cell line growth inhibition, 48 h
Active and inactive are the calls of the source. Rule as the data show it: active = GI50 up to about 1.1 µM and inactive = higher.
Reported GI50 values for a set of compounds
OBSERVABLE: GI50

>>> meas_value("CCCCSC1=N/C(=C\\c2ccco2)C(Cl)=N1")
"> 100 µM (inactive)"
>>> meas_value("C=CCN1/C(=C2\\SC(=S)N(c3ccc(C)cc3)C2=O)Sc2c1nc[nH]c2=O")
"> 100 µM (inactive)"
>>> meas_value("CCSc1n/c(=C\\c2ccc(N(C)C)cc2)c2nnnn12")
"> 100 µM (inactive)"

---

tested on: M14; assay: NCI tumour cell line growth inhibition, 48 h
Activity calls are given as the source filed them. Rule as the data show it: active = GI50 up to about 1.1 µM and inactive = higher.
OBSERVABLE: GI50

>>> meas_value("CCCCOc1ccc(S(=O)(=O)N/C(=N\\O)Nc2ccc(Cl)cc2)cc1")
"15.2 µM (inactive)"
>>> meas_value("N=C(N)c1ccc(OCCCCCOc2ccc(C(=N)N)cc2)cc1")
"15.5 µM (inactive)"
>>> meas_value("CC[C@@]1(O)C(=O)OCc2c1cc1n(c2=O)Cc2c-1nc1ccccc1c2/C=N/c1ccccc1N[C@@H]1c2cc3c(cc2[C@@H](c2cc(OC)c(O)c(OC)c2)[C@H]2C(=O)OC[C@@H]21)OCO3")
"0.04 µM (active)"

---

tested on: SW-620; assay: NCI tumour cell line growth inhibition, 48 h
The source made the active and inactive calls. Rule as the data show it: active = GI50 up to about 1.1 µM and inactive = higher.
Labels: 1 (active), 0 (inactive)

>>> assigned_class("C=C1CC2[C@H](C)C(=O)CCC2(C)C2=C1C1CCC(C(C)CCC(=C)C(C)C(=O)O)C1(C)CC2=O (stereo partly specified)")
0
>>> assigned_class("CCC1(CC)C(=O)N(C(=O)c2ccccc2)N(C(=O)c2ccc(Cl)cc2)C1=O")
0
>>> assigned_class("CC1CC[C@@]2(OC1)OC1C[C@H]3[C@@H]4CC=C5C[C@@H](OC6OC(CO)C(OC7OC(CO)C(O)C(O)C7O)C(O)C6OC6OC(C)C(O)C(O)C6O)CC[C@]5(C)[C@H]4CC[C@]3(C)C1[C@@H]2C (stereo partly specified)")
1
>>> assigned_class("NCCCC1NC(=O)/C(=C(O)/C=C/C2CCC[C@@H]2CC2SCCS2)C1=O (stereo partly specified)")
0
>>> assigned_class("Cc1n[nH]c(=O)n1Nc1ccccc1")
0
>>> assigned_class("Nc1nnc2c(-c3ccccc3)n[nH]c2n1")
0

---

test system: DU-145; assay: NCI tumour cell line growth inhibition, 48 h
Activity calls are given as the source filed them. Rule as the data show it: active = GI50 up to about 1.1 µM and inactive = higher.
Labels: true (1) for active, false (0) for inactive

>>> assigned_class("N#CC(c1ccccc1)N(CCc1ccccc1)C(=O)Oc1ccccc1 (stereo unspecified)")
"false (0)"
>>> assigned_class("Cc1nn(C(=O)c2ccncc2)c2c1C(c1ccccc1)SC(=N)N2 (stereo unspecified)")
"false (0)"
>>> assigned_class("O=C(O)CCC(NC(=O)c1ccc(Oc2nc3ccccc3nc2C(=O)O)cc1)C(=O)O (stereo unspecified)")
"false (0)"
>>> assigned_class("CC[C@@]1(OC(=O)CN(C)C)C(=O)OCc2c1cc1n(c2=O)Cc2cc3ccccc3nc2-1")
"true (1)"
>>> assigned_class("S=C(S)N1CCN(c2cccc(Cl)c2)CC1")
"false (0)"
>>> assigned_class("COc1ccc(NC(=O)C2=C(SC)C(=O)N=C2N)cc1")
"false (0)"
>>> assigned_class("O=C(O)C1Cc2c([nH]c3ccccc23)C(CCCCO)N1 (stereo unspecified)")
"false (0)"
>>> assigned_class("CN(C)CCNc1nc2c(c(=O)n(C)c(=O)n2C)n1C")
"false (0)"
>>> assigned_class("O=C1CC(c2ccc(Cl)cc2)C2(C(=O)NC(=O)NC2=O)C(c2ccc(Cl)cc2)C1 (stereo unspecified)")
"false (0)"
>>> assigned_class("CCOc1cc2c(cc1O)/C(=N\\O)C[C@@H]1[C@@H]2CC[C@]2(C)[C@@H](O)CC[C@@H]12")
"true (1)"
>>> assigned_class("COc1ccc(/C=C/C(=O)c2cc(OC)cc(OC)c2)cc1")
"false (0)"
>>> assigned_class("C/C=C1/CN2CCC34c5ccccc5N(C)C23C2CC1C4(C(=O)OC)C(O)O2 (stereo unspecified)")
"false (0)"
>>> assigned_class("O=C(O)c1ccc(C(=O)c2ccccc2C(=O)O)cc1C(=O)O")
"false (0)"
>>> assigned_class("C/C=C(\\CCC1NCCc2c1[nH]c1ccccc21)[Si](C)(C)C (stereo unspecified)")
"false (0)"
>>> assigned_class("O=C(NC(Cl)(C(F)(F)F)C(F)(F)F)c1ccc(F)cc1")
"false (0)"
>>> assigned_class("CCOC(=O)c1c(SC(=O)C(C)(C)Oc2ccc(Cl)cc2)n(-c2ccccc2)c(=S)n(-c2ccccc2)c1=O")
"false (0)"
>>> assigned_class("Oc1ccccc1/C=N/c1ccc(-c2nc3ccccc3[nH]2)cc1")
"false (0)"
>>> assigned_class("[O-][S+](CC1(O)CCCCC1)c1ccccc1 (stereo unspecified)")
"false (0)"
>>> assigned_class("Cc1ccc(-c2cc[n+]3c(n2)oc2ccccc23)cc1")
"false (0)"
>>> assigned_class("N#C[C@H](C(=O)c1ccccc1F)c1nc2ccccc2s1")
"false (0)"
>>> assigned_class("CCC(=C/[C@H](C)C/C=C/C(C)=C/[C@@H](C)C(=O)[C@@H](C)[C@H](O)[C@@H](C)CC)/C=C/[C@H]1CC=CC(=O)O1 [CALLYSTATIN A]")
"true (1)"
>>> assigned_class("CN1CCN(C(=S)N(C)C(=O)c2ccco2)CC1")
"false (0)"
>>> assigned_class("CC(=O)O[C@H]1[C@H](OC(C)=O)[C@@H](CN=[N+]=[N-])OCO[C@@H]1CN=[N+]=[N-]")
"false (0)"
>>> assigned_class("COc1ccc(NC(=O)CC(=O)N2N=C(C)C(/N=N\\c3ccc(S(=O)(=O)c4ccc(/N=N/C5C(=O)N(C(=O)CC(=O)Nc6ccc(OC)cc6)N=C5C)cc4)cc3)C2=O)cc1 (stereo unspecified)")
"false (0)"
>>> assigned_class("CC12CCCC3(CC(=O)C(C)(C)C3C(=O)C1)C2 (stereo unspecified)")
"false (0)"
>>> assigned_class("COc1ccc(NC2=NCCO2)c2c1CCCC2")
"false (0)"
>>> assigned_class("COc1ccc(-c2cc(C3CC3)nc(SCC(=O)O)c2C#N)cc1")
"false (0)"
>>> assigned_class("CN/C(=N\\N)NS(=O)(=O)c1cc(C)c(Cl)cc1S")
"false (0)"
>>> assigned_class("COc1ccc2c(C)cc(N/N=C(\\C)C=O)nc2c1")
"false (0)"
>>> assigned_class("C=C1CC[C@@H]2C13[C@@H]1[C@H](CC(=O)[C@@]23C)C1(C)C (stereo partly specified)")
"false (0)"
>>> assigned_class("Cc1n[nH]c(=O)n1Nc1ccccc1")
"false (0)"

Value source: ChEMBL document CHEMBL1201862
